System: YBL087C
ASSAY DETAILS: TOR pathway GFP reporter clone modulation in yeast – S. cerevisiae, GFP-tagged clone panel, flow cytometry (AID 504473);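 also: median GFP fluorescence of the cells measured by high-throughput flow cytometry; test concentration not given here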
MEASUREMENT PARAMETERS: S. cerevisiae GFP-tagged strains, 3 h
MEASURE: GFP ratio to DMSO
Give the figure only, with no unit attached.

Could you share which GFP ratio to DMSO value was measured for "CO[C@H]1C[C@@H]2CC[C@@H](C)[C@@](O)(O2)C(=O)C(=O)N2CCCC[C@H]2C(=O)O[C@H]([C@H](C)C[C@@H]2CC[C@@H](O)[C@H](OC)C2)CC(=O)[C@H](C)/C=C(\C)[C@@H](O)[C@@H](OC)C(=O)[C@H](C)C[C@H](C)/C=C/C=C/C=C/1C" ?
0.33

What about "CNc1nc(N)c([N+](=O)[O-])c(Nc2cccc(F)c2)n1" ?
0.567

What about "CNc1nc(N)c([N+](=O)[O-])c(Nc2ccccc2)n1" ?
1

What about "CNc1nc(N)c([N+](=O)[O-])c(Nc2cccc(Cl)c2)n1" ?
0.955

What about "CNc1nc(N)c([N+](=O)[O-])c(Nc2ccccc2OC)n1" ?
1.71

====

System: YJL144W
ASSAY DETAILS: TOR pathway GFP reporter clone modulation in yeast – S. cerevisiae, GFP-tagged clone panel, flow cytometry (AID 504473);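 also: median GFP fluorescence of the cells measured by high-throughput flow cytometry; test concentration not given here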
MEASUREMENT PARAMETERS: S. cerevisiae GFP-tagged strains, 3 h
Active and inactive are the calls of the source.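 How the source made its calls: active means GFP ratio to DMSO above 1.5 or below 0.66; inactive means the rest.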
Hello, when you answer, please use one of the following outcomes: 1 for active, -1 for inactive

Which result was noted for this compound in the test: "CNc1nc(N)c([N+](=O)[O-])c(Nc2cccc(F)c2)n1"
-1

What about "CO[C@H]1C[C@@H]2CC[C@@H](C)[C@@](O)(O2)C(=O)C(=O)N2CCCC[C@H]2C(=O)O[C@H]([C@H](C)C[C@@H]2CC[C@@H](O)[C@H](OC)C2)CC(=O)[C@H](C)/C=C(\C)[C@@H](O)[C@@H](OC)C(=O)[C@H](C)C[C@H](C)/C=C/C=C/C=C/1C" ?
1

What about "CNc1nc(N)c([N+](=O)[O-])c(Nc2ccccc2OC)n1" ?
1

What about "CNc1nc(N)c([N+](=O)[O-])c(Nc2ccccc2)n1" ?
-1

What about "CNc1nc(N)c([N+](=O)[O-])c(Nc2cccc(Cl)c2)n1" ?
-1

====

Tested on: YML026C
ASSAY DETAILS: TOR pathway GFP reporter clone modulation in yeast – S. cerevisiae, GFP-tagged clone panel, flow cytometry (AID 504473);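 also: median GFP fluorescence of the cells measured by high-throughput flow cytometry; test concentration not given here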
MEASUREMENT PARAMETERS: S. cerevisiae GFP-tagged strains, 3 h
Threshold check on GFP ratio to DMSO: at or above 0.9 gives Met, strictly below gives Not met.

API: above_or_equal(metric=GFP ratio to DMSO, cutoff=0.9) for item "CNc1nc(N)c([N+](=O)[O-])c(Nc2ccccc2)n1"
Met

What about "CO[C@H]1C[C@@H]2CC[C@@H](C)[C@@](O)(O2)C(=O)C(=O)N2CCCC[C@H]2C(=O)O[C@H]([C@H](C)C[C@@H]2CC[C@@H](O)[C@H](OC)C2)CC(=O)[C@H](C)/C=C(\C)[C@@H](O)[C@@H](OC)C(=O)[C@H](C)C[C@H](C)/C=C/C=C/C=C/1C" ?
Not met

What about "CNc1nc(N)c([N+](=O)[O-])c(Nc2cccc(Cl)c2)n1" ?
Met

What about "CNc1nc(N)c([N+](=O)[O-])c(Nc2ccccc2OC)n1" ?
Met

What about "CNc1nc(N)c([N+](=O)[O-])c(Nc2cccc(F)c2)n1" ?
Not met
